# target of assay: T1, hK1 (human tissue kallikrein 1), recombinant (human, UniProt P06870 25-262)
# T1 construct: Expressed in P. pastoris from KLK1 cDNA and purified; enzymatically active; also called KLK1; Recombinant (Pichia) Kallikrein
# assay notes: SPR

{"columns": ["binder", "scale unit", "koff"],
 "data": [
  ["M0097-E07 (Fab, V domains shown) VH: EVQLLESGGGLVQPGGSLRLSCAASGFTFSWYQMMWVRKAPGKGLEWVSYIRSSGGKTDYADSVKGRFTISRDNSKNTLYLQMNSLRAEDTAVYYCARVGVWYGMDVWGQGTTVTVSS VL: DIQMTQSPSSLSASVGDRVTITCRASQSISSYLSWFQQRPGKAPKLLIYSASNLQSGVPLRFSGSGSGTDFTLTISSLQPEDFATYYCQQIYRTPLTFGGGTKVEIKR", "s⁻¹", 0.00815],
  ["M0124-H10 (Fab, V domains shown) VH: EVQLLESGGGLVQPGGSLRLSCAASGFTFSNYFMNWVRQAPGKGLEWVSSIGSSGGYTRYADSVKGRFTISRDNSKNTLYLQMNSLRAEDTAVYYCARVGVWYGMDVWGQGTTVTVSS VL: DIQMTQSPATLSLSAGERATLSCRASQSVNIDVGWYQQKPGQAPRLLIYDASKRATGIPTRFSGSGSGTDFTLTIANLEPEDFAVYYCQQRARWLTFGGGTRLEIKR", "s⁻¹", 0.0012],
  ["M0121-H07 (Fab, V domains shown) VH: EVQLLESGGGLVQPGGSLRLSCAASGFTFSKYYMVWVRQAPGKGLEWVSVIGPSGGWTTYADSVKGRFTISRDNSKNTLYLQMNSLRAEDTAVYYCARVDYSNYFDYWGQGTLVTVSS VL: DIQMTQSPSSLSASVGDRVTITCRASQSISRYLNWYQQKPGKAPKLLIYAASNLQSGVPSRFSGSGSGRDYTLTISSLQPEDFVTYYCQQSYSTPWTFGQGTKVEIKR", "s⁻¹", 0.0055],
  ["M0128-A06 (Fab, V domains shown) VH: EVQLLESGGGLVQPGGSLRLSCAASGFTFSHYKMNWVRQAPGKGLEWVSYIGSSGGKTGYADSVKGRFTISRDNSKNTLYLQMNSLRAEDTALYYCARVGVWYGMDVWGQGTLVTVSS VL: AQSALTQPPSLSVSAGQTATITCSPSGGGLRNKYVSWYQQRPGQSPFLVIYKDAERPSGIPERFSGSNFGNTATLTIGGTQAMDEADFYCLAWDSTTRVFGGGTKLTVLS", "s⁻¹", 0.00612],
  ["M0124-C12 (Fab, V domains shown) VH: EVQLLESGGGLVQPGGSLRLSCAASGFTFSWYTMQWVRQAPGKGLEWVSRIYSSGGGTYYADSVKGRFTISRDNSKNTLYLQMNSLRAEDTAMYYCARVGPWGAFDIWGQGTMVTVSS VL: DIQMTQSPGTLSLSPGERATLSCRASQSVSSNYLAWYQQKPGKAPKLLIYAASSLQSGVPSRFSGSGSGTDFTLTISSLQPEDFATYYCQQRWTFGQGTKVEIKR", "s⁻¹", 0.126]
]}

Source: patent US7329737
